# tested.system: T1, human DLL3 protein (human, UniProt Q9NYJ7 27-492, limits assumed)
# T1 construct: Soluble human DLL3 protein used in BLI; also called Delta-like protein 3
# T1 sequence (looked up): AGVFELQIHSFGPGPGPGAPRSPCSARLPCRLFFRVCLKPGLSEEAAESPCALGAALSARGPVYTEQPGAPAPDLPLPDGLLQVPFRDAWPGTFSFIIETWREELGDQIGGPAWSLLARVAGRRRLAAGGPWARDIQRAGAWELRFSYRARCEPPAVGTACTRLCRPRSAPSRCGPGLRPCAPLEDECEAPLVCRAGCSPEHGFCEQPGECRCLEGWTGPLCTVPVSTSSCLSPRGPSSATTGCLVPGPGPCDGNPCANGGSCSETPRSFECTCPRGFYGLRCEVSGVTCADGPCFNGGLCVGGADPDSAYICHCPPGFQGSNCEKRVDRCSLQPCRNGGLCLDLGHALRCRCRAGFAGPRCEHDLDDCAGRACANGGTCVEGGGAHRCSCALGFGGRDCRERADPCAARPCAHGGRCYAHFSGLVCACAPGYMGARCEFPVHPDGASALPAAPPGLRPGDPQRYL
# assay.method.text: BLI, scFv-Fc against human DLL3 protein
metric: kon (M⁻¹ s⁻¹)
Just the number in M⁻¹ s⁻¹, nothing appended.

Find the recorded kon belonging to Ab.76 scFv-human IgG Fc (Fc fusion, not shown: human IgG Fc) EIVMTQSPATLSVSPGERATLSCRASQSVSSNLAWYRQKPGQAPRLFIYGAYTRATDIPARFSGSGSGTEFTLTISSLQSEDFAVYYCQQYNNWPFTFGPGTKVDIKGGGGSGGGGSGGGGSEVQMVESGGVLVQPGMSLRLSCAASGFTFDDYAMHWVRQPPGKGLEWVSVISWNSGSIGYADSVKGRFTISRDNAKNSLYLQMNSLRAEDTAFYYCAKDLEGGVMDFDYWGQGTLVTVSS and report it.
236000

Now consider Ab.79 scFv-human IgG Fc (Fc fusion, Tested as scFv-human IgG Fc; not shown: human IgG Fc) DVVMTQSPLSLPVTLGQPASISCRSSQSLVYNDGNTYLTWFQQWPGQSPRRLIYKVSNRDSGVPDRFSGSGSGTDFTLKISRVEAEDIGVYHCMQGTHWPYTFGQGTKLEIKGGGGSGGGGSGGGGSQVQVQESGPGLVKSSETLSLTCTVSGGSFRSYYWSWIRQPPGKGLDYIGYMYYSGTTNYNPSLTNRVSISVDTSKNQFSLKLNSVTAADTAVYYCAREGTFDIWGQGTVVTVSS and answer again.
382000

Now consider AMG757 (anti-DLL3 scFv from Amgen's patent, positive control) scFv-human IgG Fc (Fc fusion, not shown: human IgG Fc) EIVLTQSPGTLSLSPGERVTLSCRASQRVNNNYLAWYQQRPGQAPRLLIYGASSRATGIPDRFSGSGSGTDFTLTISRLEPEDFAVYYCQQYDRSPLTFGCGTKLEIKGGGGSGGGGSGGGGSQVQLQESGPGLVKPSETLSLTCTVSGGSISSYYWSWIRQPPGKCLEWIGYVYYSGTTNYNPSLKSRVTISVDTSKNQFSLKLSSVTAADTAVYYCASIAVTGFYFDYWGQGTLVTVSS and answer again.
185000
